- measuredTarget: EGFR Del19/C797S (Homo sapiens, UniProt P00533, C797S/DEL746-750)
- Sequence (P00533 with tags, fused parts or gaps DEL746-750/C797S): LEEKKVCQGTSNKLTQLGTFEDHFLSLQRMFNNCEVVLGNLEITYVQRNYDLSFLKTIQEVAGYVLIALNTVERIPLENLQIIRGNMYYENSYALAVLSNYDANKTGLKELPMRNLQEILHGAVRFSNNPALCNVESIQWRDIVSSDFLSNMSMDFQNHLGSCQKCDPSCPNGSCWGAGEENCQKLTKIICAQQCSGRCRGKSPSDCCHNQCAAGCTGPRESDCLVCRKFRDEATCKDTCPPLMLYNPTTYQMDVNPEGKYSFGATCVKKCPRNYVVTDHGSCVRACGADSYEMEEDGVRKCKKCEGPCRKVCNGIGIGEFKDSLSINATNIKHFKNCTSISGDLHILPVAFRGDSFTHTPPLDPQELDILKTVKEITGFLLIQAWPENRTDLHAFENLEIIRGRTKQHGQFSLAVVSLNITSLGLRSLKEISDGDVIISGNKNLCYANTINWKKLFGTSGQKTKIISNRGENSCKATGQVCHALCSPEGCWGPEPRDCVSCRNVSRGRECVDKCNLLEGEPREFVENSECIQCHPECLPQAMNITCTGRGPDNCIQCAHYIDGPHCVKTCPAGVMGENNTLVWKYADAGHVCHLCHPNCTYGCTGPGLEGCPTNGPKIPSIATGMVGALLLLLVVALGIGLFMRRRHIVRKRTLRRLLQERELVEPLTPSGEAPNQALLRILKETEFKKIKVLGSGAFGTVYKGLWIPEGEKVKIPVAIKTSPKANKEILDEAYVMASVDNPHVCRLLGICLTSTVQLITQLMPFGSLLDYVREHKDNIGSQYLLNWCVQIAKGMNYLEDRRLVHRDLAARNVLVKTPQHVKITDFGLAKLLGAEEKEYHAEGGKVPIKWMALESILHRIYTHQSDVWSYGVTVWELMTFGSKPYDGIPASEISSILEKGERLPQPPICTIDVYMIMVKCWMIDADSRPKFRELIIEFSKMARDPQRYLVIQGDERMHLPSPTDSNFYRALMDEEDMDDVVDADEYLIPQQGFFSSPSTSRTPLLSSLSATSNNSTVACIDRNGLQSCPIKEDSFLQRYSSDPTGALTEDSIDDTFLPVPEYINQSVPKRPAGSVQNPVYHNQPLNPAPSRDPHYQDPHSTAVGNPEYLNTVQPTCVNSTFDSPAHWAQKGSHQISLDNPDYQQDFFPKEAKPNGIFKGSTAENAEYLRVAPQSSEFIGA
- testProtocol: Biochemical EGFR kinase inhibition assay (Lance Ultra TR-FRET), double mutant del19/C797S
- conditionDescription: IC50 Del19/C797S (nM), 100 μM ATP
Parameter: log10 of IC50. Scope: all listed entries.
reportedMetric: log10 of IC50 (log10 of the value in nM)

compound | measuredTarget | recordedResult
CC1(CO)CCN(c2cc(Nc3ccnc(-c4cnn(S(=O)(=O)C5CC5)c4)n3)ncc2C#Cc2cnc(C(F)(F)F)s2)CC1 | EGFR Del19/C797S (Homo sapiens, UniProt P00533, C797S/DEL746-750) | 1.02
O=S(=O)(C1CC1)N1CCC(C#Cc2cnc(Nc3ccnc(-c4cnn(S(=O)(=O)C5CC5)c4)n3)cc2N[C@H]2CC[C@@H](O)CC2)CC1 | EGFR Del19/C797S (Homo sapiens, UniProt P00533, C797S/DEL746-750) | 0.71
CC1(CO)CCN(c2cc(Nc3ccnc(-c4cnn(S(=O)(=O)C5CC5)c4)n3)ncc2C#Cc2cnn(CCN3CCOCC3)c2)CC1 | EGFR Del19/C797S (Homo sapiens, UniProt P00533, C797S/DEL746-750) | 0.04
CN1CCC(C#Cc2cnc(Nc3ccnc(-c4cnn(S(=O)(=O)C5CC5)c4)n3)cc2NC2CCC(O)CC2)C1 (stereo not drawn) | EGFR Del19/C797S (Homo sapiens, UniProt P00533, C797S/DEL746-750) | -0.22
CN(C)CCCn1cc(C#Cc2cnc(Nc3ccnc(-c4cnn(S(=O)(=O)C5CC5)c4)n3)cc2N[C@H]2CC[C@@H](O)CC2)cn1 | EGFR Del19/C797S (Homo sapiens, UniProt P00533, C797S/DEL746-750) | -0.22
CC(C)Nc1cc(Nc2ccnc(-c3cnn(S(=O)(=O)C4CC4)c3)n2)ncc1C#CCCCC(=O)N1CCOCC1 | EGFR Del19/C797S (Homo sapiens, UniProt P00533, C797S/DEL746-750) | 2.08

----------
- measuredTarget: EGFR L858R/C797S (Homo sapiens, UniProt P00533, C797S/L858R)
- Sequence (P00533 25-1210 C797S/L858R): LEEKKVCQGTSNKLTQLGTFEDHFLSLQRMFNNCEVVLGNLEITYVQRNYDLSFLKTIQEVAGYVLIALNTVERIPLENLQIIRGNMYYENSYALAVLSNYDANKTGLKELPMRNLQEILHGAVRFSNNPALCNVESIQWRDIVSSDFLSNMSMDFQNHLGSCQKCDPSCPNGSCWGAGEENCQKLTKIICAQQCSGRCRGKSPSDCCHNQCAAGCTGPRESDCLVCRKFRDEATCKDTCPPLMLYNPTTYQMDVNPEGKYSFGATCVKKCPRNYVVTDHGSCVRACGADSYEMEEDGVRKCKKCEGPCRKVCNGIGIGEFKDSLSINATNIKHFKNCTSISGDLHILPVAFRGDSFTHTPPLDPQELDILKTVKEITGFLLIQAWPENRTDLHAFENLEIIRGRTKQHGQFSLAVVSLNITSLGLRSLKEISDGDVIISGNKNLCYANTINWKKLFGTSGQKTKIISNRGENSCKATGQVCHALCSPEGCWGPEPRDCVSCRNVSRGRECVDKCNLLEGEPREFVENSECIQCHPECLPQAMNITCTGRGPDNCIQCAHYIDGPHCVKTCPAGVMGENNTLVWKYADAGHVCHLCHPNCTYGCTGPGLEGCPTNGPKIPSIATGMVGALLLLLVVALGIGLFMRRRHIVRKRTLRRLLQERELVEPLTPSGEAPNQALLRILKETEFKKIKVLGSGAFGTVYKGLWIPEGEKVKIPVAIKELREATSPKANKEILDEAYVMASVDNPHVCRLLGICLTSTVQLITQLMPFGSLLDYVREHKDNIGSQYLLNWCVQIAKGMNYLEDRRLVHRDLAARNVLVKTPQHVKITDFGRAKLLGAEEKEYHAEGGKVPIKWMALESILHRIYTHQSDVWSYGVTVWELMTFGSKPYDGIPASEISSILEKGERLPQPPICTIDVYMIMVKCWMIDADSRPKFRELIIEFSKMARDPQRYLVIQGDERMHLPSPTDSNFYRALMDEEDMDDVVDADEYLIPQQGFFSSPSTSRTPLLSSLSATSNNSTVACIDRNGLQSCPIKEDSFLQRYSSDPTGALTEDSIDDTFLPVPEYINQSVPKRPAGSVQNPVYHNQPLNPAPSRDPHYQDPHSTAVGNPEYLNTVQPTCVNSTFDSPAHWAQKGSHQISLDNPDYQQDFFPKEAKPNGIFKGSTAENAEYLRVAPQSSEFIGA
- testProtocol: Biochemical EGFR kinase inhibition assay (Lance Ultra TR-FRET), double mutant L858R/C797S
- conditionDescription: IC50 L858R/C797S (nM), 100 μM ATP
Please note: IC50 exactly at 70 nM is FALSE. Only values below 70 nM get TRUE.

compound | labelValue
CN(C)CCNC1CCN(c2cc(Nc3ccnc(-c4cnn(S(=O)(=O)C5CC5)c4)n3)ncc2C#Cc2ccn(C)n2)CC1 [Example 142] | FALSE
CC1(CO)CCN(c2cc(Nc3ccnc(-c4cnn(S(=O)(=O)C5CC5)c4)n3)ncc2C#Cc2cnn(CC(F)(F)F)c2)CC1 [Example 348] | TRUE
CN(C)C(=O)c1cccc(C#Cc2cnc(Nc3ccnc(-c4cnn(S(=O)(=O)C5CC5)c4)n3)cc2N2CCC(C)(CO)CC2)n1 [Example 264] | TRUE
CN(C)CCCn1cc(C#Cc2cnc(Nc3ccnc(-c4cnn(S(=O)(=O)C5CC5)c4)n3)cc2N[C@H]2CC[C@@H](O)CC2)cn1 [Example 123] | TRUE
CC1(O)CCC(Nc2cc(Nc3ccnc(-c4cnn(S(=O)(=O)C5CC5)c4)n3)ncc2C#Cc2cnn(C3CC3(F)F)c2)CC1 (centres unmarked) [Example 326] | FALSE
Cn1cc(C#Cc2cnc(Nc3ccnc(-c4cnn(S(=O)(=O)C5CC5)c4)n3)cc2N2CCCC(C(F)(F)F)C2)cn1 (centres unmarked) [Example 71] | FALSE
CC(O)C1CCN(c2cc(Nc3ccnc(-c4cnn(S(=O)(=O)C5CC5)c4)n3)ncc2C#Cc2cnn(C)c2)CC1 (centres unmarked) [Example 10] | TRUE
O=S(=O)(C1CC1)n1cc(-c2nccc(Nc3cc(N4CCC(F)(CO)CC4)c(C#Cc4cnn(C(F)(F)F)c4)cn3)n2)cn1 [Example 338] | FALSE
CN1CCC2(CC1)CCN(c1cc(Nc3ccnc(-c4cnn(S(=O)(=O)C5CC5)c4)n3)ncc1C#Cc1cnn(C3CC3)c1)CC2 [Example 319] | TRUE
O=S(=O)(C1CC1)n1cc(-c2nccc(Nc3cc(NC4CCC(O)CC4)c(C#CC4(F)CCOC4)cn3)n2)cn1 (centres unmarked) [Example 436] | FALSE
COC1(O)CCN(c2cc(Nc3ccnc(-c4cnn(S(=O)(=O)C5CC5)c4)n3)ncc2C#CC2CCN(C)C2)CC1 (centres unmarked) [Example 371] | TRUE
CC1(CO)CCN(c2cc(Nc3ccnc(-c4cnn(S(=O)(=O)C5CC5)c4)n3)ncc2C#Cc2ccccn2)CC1 [Example 259] | TRUE
O=S(=O)(C1CC1)n1cc(-c2nccc(Nc3cc(N4CCCC(O)C4)c(C#Cc4ccc(N5CCOCC5)nc4)cn3)n2)cn1 (centres unmarked) [Example 227] | FALSE
CC(C)(O)[C@H]1CC[C@@H](Nc2cc(Nc3ccnc(-c4cnn(S(=O)(=O)C5CC5)c4)n3)ncc2C#Cc2cnn(C(F)(F)F)c2)CC1 [Example 337] | FALSE
O=C(N1CCC(C#Cc2cnc(Nc3ccnc(-c4cnn(S(=O)(=O)C5CC5)c4)n3)cc2NC2CCC(CO)CC2)C1)C(F)(F)F (centres unmarked) [Example 408] | TRUE
CC1(CO)CCN(c2cc(Nc3ccnc(-c4cnn(S(=O)(=O)C5CC5)c4)n3)ncc2C#CC2CC(C(C)(C)O)C2)CC1 (centres unmarked) [Example 266] | TRUE
CC1OCCC1C#Cc1cnc(Nc2ccnc(-c3cnn(S(=O)(=O)C4CC4)c3)n2)cc1NCC1CCC(O)CC1 (centres unmarked) [Example 431] | FALSE
CC1(CO)CCN(c2cc(Nc3ccnc(-c4cnn(S(=O)(=O)C5CC5)c4)n3)ncc2C#Cc2cnn(CCN3CCOCC3)c2)CC1 [Example 232] | TRUE
CC1(C#Cc2cnc(Nc3ccnc(-c4cnn(S(=O)(=O)C5CC5)c4)n3)cc2NC[C@H]2CC[C@H](CO)CC2)CC1 [Example 405] | FALSE
CN(C)CCC1CCN(c2cc(Nc3ccnc(-c4cnn(S(=O)(=O)C5CC5)c4)n3)ncc2C#Cc2cnn(C(F)(F)F)c2)CC1 [Example 335] | TRUE
CC1OCCC1C#Cc1cnc(Nc2ccnc(-c3cnn(S(=O)(=O)C4CC4)c3)n2)cc1NC1CCC(O)CC1 (centres unmarked) [Example 433] | FALSE
CN1CCC(n2cc(C#Cc3cnc(Nc4ccnc(-c5cnn(S(=O)(=O)C6CC6)c5)n4)cc3N3CCC(C)(CO)CC3)cn2)CC1 [Example 147] | TRUE
CC(=O)N1CCC(n2cc(C#Cc3cnc(Nc4ccnc(-c5cnn(S(=O)(=O)C6CC6)c5)n4)cc3N[C@H]3CC[C@@H](O)CC3)cn2)CC1 [Example 109] | TRUE
COC1CCN(c2cc(Nc3ccnc(-c4cnn(S(=O)(=O)C5CC5)c4)n3)ncc2C#Cc2cnn(C3CCN(C(C)=O)CC3)c2)CC1 [Example 113] | TRUE
O=S(=O)(C1CC1)n1cc(-c2nccc(Nc3cc(N[C@H]4CCC[C@H](O)C4)c(C#Cc4ccsc4)cn3)n2)cn1 [Example 225] | FALSE

----------
- measuredTarget: EGFR Del19/T790M/C797S (Homo sapiens, UniProt P00533, C797S/DEL746-750/T790M)
- Sequence (P00533 with tags, fused parts or gaps DEL746-750/T790M/C797S): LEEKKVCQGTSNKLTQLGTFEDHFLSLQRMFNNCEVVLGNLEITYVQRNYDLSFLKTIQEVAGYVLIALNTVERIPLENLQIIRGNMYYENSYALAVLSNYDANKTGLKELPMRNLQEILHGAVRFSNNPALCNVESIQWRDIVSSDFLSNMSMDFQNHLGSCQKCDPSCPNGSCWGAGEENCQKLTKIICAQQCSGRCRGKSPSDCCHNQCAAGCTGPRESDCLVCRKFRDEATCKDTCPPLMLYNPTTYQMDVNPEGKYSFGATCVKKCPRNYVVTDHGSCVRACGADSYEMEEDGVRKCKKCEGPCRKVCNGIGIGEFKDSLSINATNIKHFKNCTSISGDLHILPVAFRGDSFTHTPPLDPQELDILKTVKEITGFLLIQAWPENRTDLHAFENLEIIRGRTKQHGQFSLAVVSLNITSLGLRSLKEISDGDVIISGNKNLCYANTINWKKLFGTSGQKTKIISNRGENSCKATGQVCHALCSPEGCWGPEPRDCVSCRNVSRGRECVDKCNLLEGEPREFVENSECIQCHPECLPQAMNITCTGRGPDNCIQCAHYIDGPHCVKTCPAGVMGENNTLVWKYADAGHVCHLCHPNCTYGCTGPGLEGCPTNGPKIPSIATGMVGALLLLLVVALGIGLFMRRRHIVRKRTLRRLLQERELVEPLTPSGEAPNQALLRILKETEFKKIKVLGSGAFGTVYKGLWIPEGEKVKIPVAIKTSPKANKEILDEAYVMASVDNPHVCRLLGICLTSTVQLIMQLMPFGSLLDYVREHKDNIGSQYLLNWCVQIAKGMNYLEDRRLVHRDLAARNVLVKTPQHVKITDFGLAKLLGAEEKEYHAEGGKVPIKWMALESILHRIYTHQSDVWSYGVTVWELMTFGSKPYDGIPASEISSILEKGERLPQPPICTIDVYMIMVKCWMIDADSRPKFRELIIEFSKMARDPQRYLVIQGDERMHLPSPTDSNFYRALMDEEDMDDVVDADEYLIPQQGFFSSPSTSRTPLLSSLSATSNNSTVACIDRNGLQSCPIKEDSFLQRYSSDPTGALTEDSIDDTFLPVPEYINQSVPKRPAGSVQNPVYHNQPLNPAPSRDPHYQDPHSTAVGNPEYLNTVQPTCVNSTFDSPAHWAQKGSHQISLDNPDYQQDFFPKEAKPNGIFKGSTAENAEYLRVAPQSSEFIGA
- testProtocol: Biochemical EGFR kinase inhibition assay (Lance Ultra TR-FRET), triple mutant del19/T790M/C797S
- conditionDescription: IC50 Del19/T790M/C797S (nM), 100 μM ATP
reportedMetric: log10 IC50 (log10 of the value in nM)

molecule | log10 IC50
CN(C)S(=O)(=O)n1cc(-c2nccc(Nc3cc(N4CCC(C)(CO)CC4)c(C#Cc4cnn(C(F)(F)F)c4)cn3)n2)cn1 | 0.46
CC1OCCC1C#Cc1cnc(Nc2ccnc(-c3cnn(S(=O)(=O)C4CC4)c3)n2)cc1N1CCC(C)(CO)CC1 (stereo not shown) | -0.52
CC1(CO)CCN(c2cc(Nc3ccnc(-c4cnn(S(=O)(=O)C5CC5)c4)n3)ncc2C#Cc2nc(C(F)(F)F)cs2)CC1 | 0.87
CC1(O)CCN(c2cc(Nc3ccnc(-c4cnn(S(=O)(=O)C5CC5)c4)n3)ncc2C#CC2(F)CCOC2)CC1 (stereo not shown) | -0.70
CS(=O)(=O)N1CCC(C#Cc2cnc(Nc3ccnc(-c4cnn(S(=O)(=O)C5CC5)c4)n3)cc2NCC2CCC(O)CC2)C1 (stereo not shown) | 1.17
O=S(=O)(C1CC1)n1cc(-c2nccc(Nc3cc(N4CCCC(O)C4)c(C#Cc4ccc(N5CCOCC5)nc4)cn3)n2)cn1 (stereo not shown) | 0.66
Cc1nn(S(=O)(=O)N(C)C)cc1-c1nccc(Nc2cc(N3CCC(C)(CO)CC3)c(C#Cc3cnn(C(F)(F)F)c3)cn2)n1 | 0.85

// data source = patent US11981658B2
